- Tested on: Caco-2
- EXPERIMENTAL DETAILS: drug sensitivity score (DSS) for viability; higher = more toxic; extreme values may be limits of the assay
- CONDITION NOTES: 72 h
READOUT NAME: drug sensitivity score

Given the entry CCCC[C@H](NC(C)=O)C(=O)N[C@H]1CC(=O)NCCCC[C@@H](C(=O)O)NC(=O)[C@H](Cc2c[nH]c3ccccc23)NC(=O)[C@H](CCCNC(=N)N)NC(=O)[C@@H](Cc2ccccc2)NC(=O)[C@H](Cc2c[nH]cn2)NC1=O [bremelanotide] , report its measured drug sensitivity score.
0

Record request: drug sensitivity score value, item Cn1cc(-c2cnc3ccc4ccc(CS(=O)(=O)NCc5ccccn5)cc4c(=O)c3c2)cn1 [MK-8033]
1.2

For the compound CN(C)CC/C=C1/c2ccccc2COc2ccccc21 [doxepin] , what drug sensitivity score is on record?
0

What value of measured drug sensitivity score is listed for CCCN1CCC[C@@H]2Cc3n[nH]cc3C[C@H]21 [quinpirol-(-)] ?
0

Field request: drug sensitivity score | item: CC(C)(N)CC12CC3CC(CC(C3)C1)C2 [somantadine]
0

Entry Nc1ncnc2c1ncn2[C@H]1CC[C@@H](CO)O1 [dideoxyadenosine] has what drug sensitivity score?
0

Reported drug sensitivity score for OCCN1C[C@H](O)[C@@H](O)[C@H](O)[C@H]1CO [miglitol] : what is it?
0

Any idea what its drug sensitivity score is? The compound is CC(C)n1c(/C=C/[C@@H](O)C[C@@H](O)CC(=O)O)c(-c2ccc(F)cc2)c2ccccc21 [fluvastatin]
1.7

Given CC(=O)[C@@]1(O)CC[C@H]2[C@@H]3C[C@H](C)C4=CC(=O)CC[C@]4(C)[C@H]3CC[C@@]21C [medroxyprogesterone] , state its recorded drug sensitivity score.
0

Can you look up the measured drug sensitivity score of CN1CCN(c2cc(-c3ccccc3)nc(N)n2)CC1 for me?
0

May I ask what drug sensitivity score has been recorded for CC1(C)S[C@@H]2[C@H](NC(=O)Cc3ccccc3)C(=O)N2[C@H]1C(=O)O [benzylpenicillin] ?
0

If you can, please state the reported drug sensitivity score value of CCOC(=O)[C@H](CCc1ccccc1)N[C@@H](C)C(=O)N1Cc2ccccc2C[C@H]1C(=O)O [quinapril] .
0

I would be grateful if you could share the reported drug sensitivity score for CNCC[C@H](Oc1cccc2ccccc12)c1cccs1 [duloxetine] .
0

Entry under review: COc1oc(=O)c2cc(N)ccc2c1Cl [JLK-6] . Reported drug sensitivity score?
1.5

What does the data say about its drug sensitivity score? Entry: C#C[C@]1(OC(=O)CCCCCC)CC[C@H]2[C@@H]3CCC4=CC(=O)CC[C@@H]4[C@H]3CC[C@@]21C [norethisterone-enanthate]
2.8

What value of drug sensitivity score has been reported for the following compound? O=S1(=O)CCN(CN2CCS(=O)(=O)NC2)CN1 [taurolidine]
0.2

For the compound CCCCCOc1c(OC)ccc2cc(C(=O)NCc3ccc4c(c3)OCO4)c(=O)[nH]c12 [JTE-907] , what drug sensitivity score is on record?
0.8
